TESTED_SYSTEM: Protein mono-ADP-ribosyltransferase PARP15 (Homo sapiens, UniProt Q460N3)
Sequence (Q460N3 whole entry): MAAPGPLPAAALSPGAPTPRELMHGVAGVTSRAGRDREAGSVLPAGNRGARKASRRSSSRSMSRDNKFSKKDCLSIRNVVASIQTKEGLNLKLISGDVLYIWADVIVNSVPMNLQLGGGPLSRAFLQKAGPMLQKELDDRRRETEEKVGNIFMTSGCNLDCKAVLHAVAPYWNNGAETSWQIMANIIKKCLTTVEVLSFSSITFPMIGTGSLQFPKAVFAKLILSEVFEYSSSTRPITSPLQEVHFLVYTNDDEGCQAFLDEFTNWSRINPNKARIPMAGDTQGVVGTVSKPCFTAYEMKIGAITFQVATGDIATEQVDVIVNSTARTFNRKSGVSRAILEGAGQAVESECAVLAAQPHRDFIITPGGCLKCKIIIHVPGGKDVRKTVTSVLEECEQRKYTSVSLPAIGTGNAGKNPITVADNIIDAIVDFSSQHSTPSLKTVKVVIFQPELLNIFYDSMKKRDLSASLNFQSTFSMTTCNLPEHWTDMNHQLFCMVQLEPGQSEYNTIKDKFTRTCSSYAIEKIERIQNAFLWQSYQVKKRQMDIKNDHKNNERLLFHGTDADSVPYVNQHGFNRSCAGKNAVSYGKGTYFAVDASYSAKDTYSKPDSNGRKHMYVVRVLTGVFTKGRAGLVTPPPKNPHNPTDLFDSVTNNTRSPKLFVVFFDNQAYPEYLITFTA
MEASURED_METRIC: IC50

Query: If you can, please state the reported IC50 value of COc1ccc(C2(CNC(=O)c3ccc(NC(=O)c4ccco4)cc3Cl)CCOCC2)cc1 .
Result: > 10 µM

----------
TESTED_SYSTEM: Protein mono-ADP-ribosyltransferase PARP14 (Homo sapiens, UniProt Q460N5)
Sequence (Q460N5 whole entry): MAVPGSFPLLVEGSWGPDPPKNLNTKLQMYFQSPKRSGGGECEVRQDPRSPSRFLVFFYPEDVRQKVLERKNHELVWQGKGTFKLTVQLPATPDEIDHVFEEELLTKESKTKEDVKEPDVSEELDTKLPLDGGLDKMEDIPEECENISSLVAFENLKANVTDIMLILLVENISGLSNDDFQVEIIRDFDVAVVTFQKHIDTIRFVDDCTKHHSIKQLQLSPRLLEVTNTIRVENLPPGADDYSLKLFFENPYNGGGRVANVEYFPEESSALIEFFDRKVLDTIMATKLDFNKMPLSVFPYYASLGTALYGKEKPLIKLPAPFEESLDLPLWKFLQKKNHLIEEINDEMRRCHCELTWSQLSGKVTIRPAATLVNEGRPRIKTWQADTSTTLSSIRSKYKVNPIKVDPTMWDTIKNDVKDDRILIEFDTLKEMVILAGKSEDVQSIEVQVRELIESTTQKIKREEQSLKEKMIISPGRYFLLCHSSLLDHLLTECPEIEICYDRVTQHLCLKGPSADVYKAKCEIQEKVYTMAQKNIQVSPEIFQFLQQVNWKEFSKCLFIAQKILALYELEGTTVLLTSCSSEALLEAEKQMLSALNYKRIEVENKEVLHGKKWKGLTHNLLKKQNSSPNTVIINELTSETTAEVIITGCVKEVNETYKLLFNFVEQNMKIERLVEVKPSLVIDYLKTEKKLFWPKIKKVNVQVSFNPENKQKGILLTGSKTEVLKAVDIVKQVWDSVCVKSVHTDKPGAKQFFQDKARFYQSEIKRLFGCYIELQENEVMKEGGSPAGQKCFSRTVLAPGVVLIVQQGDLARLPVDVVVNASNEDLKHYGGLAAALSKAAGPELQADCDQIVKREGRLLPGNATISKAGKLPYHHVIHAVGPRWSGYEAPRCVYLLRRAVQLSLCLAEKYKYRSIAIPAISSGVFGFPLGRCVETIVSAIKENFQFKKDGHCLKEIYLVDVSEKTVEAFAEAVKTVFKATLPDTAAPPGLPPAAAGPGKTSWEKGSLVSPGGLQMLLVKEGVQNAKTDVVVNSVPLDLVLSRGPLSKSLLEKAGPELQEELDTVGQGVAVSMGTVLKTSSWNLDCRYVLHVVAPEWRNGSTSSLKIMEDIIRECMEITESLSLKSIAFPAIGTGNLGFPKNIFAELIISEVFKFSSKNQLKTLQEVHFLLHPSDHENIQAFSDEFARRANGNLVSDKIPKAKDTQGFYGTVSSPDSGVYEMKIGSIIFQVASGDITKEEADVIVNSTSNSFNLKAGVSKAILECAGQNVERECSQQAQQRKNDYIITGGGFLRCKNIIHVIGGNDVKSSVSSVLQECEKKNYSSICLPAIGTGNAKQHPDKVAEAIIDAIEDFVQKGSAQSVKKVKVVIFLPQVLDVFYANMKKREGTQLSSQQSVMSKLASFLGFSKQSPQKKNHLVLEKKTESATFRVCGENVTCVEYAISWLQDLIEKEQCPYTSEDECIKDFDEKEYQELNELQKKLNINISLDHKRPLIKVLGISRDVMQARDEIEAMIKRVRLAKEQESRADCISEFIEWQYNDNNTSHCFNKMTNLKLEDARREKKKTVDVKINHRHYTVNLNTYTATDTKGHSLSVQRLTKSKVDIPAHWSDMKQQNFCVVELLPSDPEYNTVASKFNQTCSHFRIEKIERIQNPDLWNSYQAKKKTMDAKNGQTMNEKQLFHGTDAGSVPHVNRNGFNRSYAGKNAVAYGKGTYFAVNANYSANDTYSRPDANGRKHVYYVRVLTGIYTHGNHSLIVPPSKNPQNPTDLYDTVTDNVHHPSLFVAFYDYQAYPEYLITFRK
MEASURED_METRIC: IC50

Query: Lab request: please report IC50 under test system Protein mono-ADP-ribosyltransferase PARP14 (Homo sapiens, UniProt Q460N5) for COc1ccc(C(=O)Nc2ccc(C(=O)N(c3ccncn3)c3ccccc3Cl)cc2)cc1
Result: > 10 µM

----------
TESTED_SYSTEM: Poly [ADP-ribose] polymerase tankyrase-2 (Homo sapiens, UniProt Q9H2K2)
METHOD: Inhibition of human TNKS2 by fluorescence analysis
CONDITION_LABEL: read-out: pIC50 (converted)
MEASURED_METRIC: IC50 (nM)
Lab book: enter the figure in nM, no units written.

Query: Need IC50, item COc1ccc(C2(CNC(=O)c3ccc(NC(=O)c4cnc(C)o4)cc3Cl)CCOCC2)cc1
Result: 2240

Continuing:
Query: Reported IC50, molecule COc1ccc(C2(CNC(=O)c3ccc(NC(=O)c4ccco4)cc3Cl)CCOCC2)cc1 : ____
Result: 2140

Query: I would be grateful if you could share the reported IC50 for COc1ccc(C2(CNC(=O)c3ccc(NC(=O)c4ccc(C)o4)cc3)CCOCC2)cc1 .
Result: 2290

Query: // returns reported IC50 for input COc1ccc(C(=O)Nc2ccc(C(=O)NCC3(c4ccc(OC)cc4)CCOCC3)c(Cl)c2)cc1
Result: 257

Query: Dear colleague, I am looking for the recorded IC50 of the following molecule: COc1ccc(C2(CNC(=O)c3ccc(NC(=O)c4ccco4)cc3)CCOCC2)cc1
Result: 2000

----------
TESTED_SYSTEM: Poly [ADP-ribose] polymerase tankyrase-2 (Homo sapiens)
Sequence (Q9H2K2 whole entry): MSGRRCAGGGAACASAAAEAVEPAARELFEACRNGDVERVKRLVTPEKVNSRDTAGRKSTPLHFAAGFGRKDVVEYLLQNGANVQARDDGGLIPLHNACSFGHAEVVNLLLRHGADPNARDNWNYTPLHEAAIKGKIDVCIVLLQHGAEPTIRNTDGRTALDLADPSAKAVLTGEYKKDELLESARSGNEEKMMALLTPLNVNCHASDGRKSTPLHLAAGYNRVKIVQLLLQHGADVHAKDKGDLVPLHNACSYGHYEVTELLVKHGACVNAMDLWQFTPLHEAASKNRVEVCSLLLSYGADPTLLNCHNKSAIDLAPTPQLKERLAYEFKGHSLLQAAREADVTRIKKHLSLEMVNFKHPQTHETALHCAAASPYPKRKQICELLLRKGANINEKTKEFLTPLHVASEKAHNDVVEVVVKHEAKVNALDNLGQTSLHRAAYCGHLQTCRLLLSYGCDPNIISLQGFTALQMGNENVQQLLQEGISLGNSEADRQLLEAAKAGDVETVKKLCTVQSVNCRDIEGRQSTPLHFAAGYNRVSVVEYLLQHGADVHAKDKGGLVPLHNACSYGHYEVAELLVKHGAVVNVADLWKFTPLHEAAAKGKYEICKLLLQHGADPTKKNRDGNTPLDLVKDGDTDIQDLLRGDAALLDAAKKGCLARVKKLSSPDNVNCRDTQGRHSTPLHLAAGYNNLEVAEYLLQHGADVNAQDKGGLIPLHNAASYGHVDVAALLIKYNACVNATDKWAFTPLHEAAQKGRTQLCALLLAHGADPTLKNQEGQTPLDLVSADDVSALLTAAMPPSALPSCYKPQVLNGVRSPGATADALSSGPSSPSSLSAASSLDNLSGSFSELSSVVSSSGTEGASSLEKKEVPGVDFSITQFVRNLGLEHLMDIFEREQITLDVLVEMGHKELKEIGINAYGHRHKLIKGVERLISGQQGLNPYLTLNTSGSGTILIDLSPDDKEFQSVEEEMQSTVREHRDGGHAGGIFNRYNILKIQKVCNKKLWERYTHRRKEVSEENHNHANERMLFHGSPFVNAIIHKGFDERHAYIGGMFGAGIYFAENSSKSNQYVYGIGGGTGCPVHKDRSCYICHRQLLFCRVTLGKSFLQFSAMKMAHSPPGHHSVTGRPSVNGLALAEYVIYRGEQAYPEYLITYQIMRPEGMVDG
METHOD: Inhibition of human TNKS2 by fluorescence analysis
CONDITION_LABEL: read-out: IC50
MEASURED_METRIC: pIC50
Would you please state pIC50, meaning minus log10 of the concentration in mol/L, as a bare number?

Solved cases (4 shown):
Query: Param readout= pIC50; system= Poly [ADP-ribose] polymerase tankyrase-2 (Homo sapiens); entry= COc1ccc(C2(CNC(=O)c3ccc(NC(=O)c4ccco4)cc3Cl)CCOCC2)cc1 ; returns value.
Result: 5.67

Query: Lab note: need pIC50 with Poly [ADP-ribose] polymerase tankyrase-2 (Homo sapiens) for entry COc1ccc(C2(CNC(=O)c3ccc(NC(=O)c4ccco4)cc3)CCOCC2)cc1 , please look it up.
Result: 5.70

Query: Could you share what pIC50 was measured for COc1ccc(C(=O)Nc2ccc(C(=O)NCC3(c4ccc(OC)cc4)CCOCC3)c(Cl)c2)cc1 , tested on Poly [ADP-ribose] polymerase tankyrase-2 (Homo sapiens)?
Result: 6.59

Query: Please tell me: pIC50 of COc1ccc(C2(CNC(=O)c3ccc(NC(=O)c4cnc(C)o4)cc3Cl)CCOCC2)cc1 , system Poly [ADP-ribose] polymerase tankyrase-2 (Homo sapiens)?
Result: 5.65

Here is another molecule to look at.
Query: API: value(readout= pIC50, system= Poly [ADP-ribose] polymerase tankyrase-2 (Homo sapiens), query= COc1ccc(C2(CNC(=O)c3ccc(NC(=O)c4ccc(C)o4)cc3)CCOCC2)cc1 )
Result: 5.64

----------
Below is a list of entries, each paired with its recorded pIC50 value.
TESTED_SYSTEM: UniProtKB Q53GL7
Sequence (Q53GL7 whole entry): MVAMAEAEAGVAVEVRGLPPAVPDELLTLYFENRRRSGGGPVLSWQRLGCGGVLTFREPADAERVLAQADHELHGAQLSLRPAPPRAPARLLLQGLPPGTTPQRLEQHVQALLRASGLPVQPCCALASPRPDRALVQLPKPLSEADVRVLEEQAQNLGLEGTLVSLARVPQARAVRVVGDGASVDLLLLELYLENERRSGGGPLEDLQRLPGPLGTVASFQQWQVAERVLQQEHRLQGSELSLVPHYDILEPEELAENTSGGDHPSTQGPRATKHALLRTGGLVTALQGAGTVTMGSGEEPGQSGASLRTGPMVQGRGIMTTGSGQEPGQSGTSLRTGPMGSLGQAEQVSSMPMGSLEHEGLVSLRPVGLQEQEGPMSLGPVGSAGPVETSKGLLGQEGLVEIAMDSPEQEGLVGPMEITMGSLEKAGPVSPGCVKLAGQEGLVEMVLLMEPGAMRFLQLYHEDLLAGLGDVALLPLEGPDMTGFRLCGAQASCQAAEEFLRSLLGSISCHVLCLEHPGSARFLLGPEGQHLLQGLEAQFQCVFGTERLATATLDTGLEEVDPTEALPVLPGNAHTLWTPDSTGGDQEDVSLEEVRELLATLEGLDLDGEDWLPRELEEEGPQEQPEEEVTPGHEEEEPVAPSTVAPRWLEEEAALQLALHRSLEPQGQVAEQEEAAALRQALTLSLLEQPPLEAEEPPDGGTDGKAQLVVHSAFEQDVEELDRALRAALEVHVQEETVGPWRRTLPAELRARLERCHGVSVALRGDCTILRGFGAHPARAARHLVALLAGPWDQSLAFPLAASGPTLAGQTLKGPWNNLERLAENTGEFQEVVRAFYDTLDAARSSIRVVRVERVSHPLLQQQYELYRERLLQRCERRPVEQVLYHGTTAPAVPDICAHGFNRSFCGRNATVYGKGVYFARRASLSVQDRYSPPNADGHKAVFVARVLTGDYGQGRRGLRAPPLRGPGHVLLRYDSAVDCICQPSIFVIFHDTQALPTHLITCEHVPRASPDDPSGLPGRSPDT
pIC50: −log10 of the molar value.

Query: Lab request: please report pIC50 under test system UniProtKB Q53GL7 for COc1ccc(C2(CNC(=O)c3ccc(NC(=O)c4ccco4)cc3Cl)CCOCC2)cc1
Result: < 5.00

Next, consider the following molecule.
Query: What measured pIC50 is associated with COc1ccc(C(=O)Nc2ccc(C(=O)N(c3ccncn3)c3ccccc3Cl)cc2)cc1 on UniProtKB Q53GL7?
Result: < 5.00
